# target_or_test_system: hMC4-R (Homo sapiens, UniProt P32245)
# Construct: expressed in transfected cells; host or cells: CHO-K1
# Sequence (P32245 whole entry): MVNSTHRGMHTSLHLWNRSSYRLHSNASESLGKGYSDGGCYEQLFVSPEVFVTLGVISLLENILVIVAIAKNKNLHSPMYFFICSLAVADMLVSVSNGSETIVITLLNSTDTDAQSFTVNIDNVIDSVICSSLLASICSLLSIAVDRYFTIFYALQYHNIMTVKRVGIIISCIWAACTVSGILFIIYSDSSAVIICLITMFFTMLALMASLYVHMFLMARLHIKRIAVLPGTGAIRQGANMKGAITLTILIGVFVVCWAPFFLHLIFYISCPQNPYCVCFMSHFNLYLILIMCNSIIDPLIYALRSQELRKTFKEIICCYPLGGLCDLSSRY
# protocol_summary: Radioligand binding assay, [125I]-NDP-α-MSH competition, CHO-K1 membranes
# condition_summary: Table 5; read-out: Ki KMC4-R
Bridge positions count the residues as written; N and C are the ends. Square brackets hold non-standard residues; d marks the D form. Peptide text beside a SMILES is read from it. 1Nal = N[C@@H](Cc1cccc2ccccc12)C(=O)O; d2Nal = N[C@H](Cc1ccc2ccccc2c1)C(=O)O; hArg = N=C(N)NCCCC[C@H](N)C(=O)O; Nle = CCCC[C@H](N)C(=O)O; βAla = NCCC(=O)O
Parameter Ki: see the listing below.
Give the quantity in nM, number only.

>>> obs_value("CC(=O)N[C@@H](CC1CCCCC1)C(=O)N[C@H]1CC(=O)NCCCC[C@@H](C(N)=O)NC(=O)CCCNC(=O)[C@H](Cc2c[nH]c3ccccc23)NC(=O)[C@H](CCCNC(=N)N)NC(=O)[C@@H](Cc2ccc3ccccc3c2)NC(=O)[C@H](Cc2c[nH]cn2)NC1=O")
2.82
>>> obs_value("C[C@@H](O)[C@H](NC(=O)[C@H]1CSSC[C@H](NC(=O)[C@H](N)Cc2ccccc2)C(=O)N[C@@H](Cc2c[nH]cn2)C(=O)N[C@H](Cc2ccccc2)C(=O)N[C@@H](CCCCNC(=N)N)C(=O)N[C@@H](Cc2c[nH]c3ccccc23)C(=O)NCCC(=O)N1)C(N)=O (H-[dF]CH[dF][hArg]W[βAla][dC]T-NH2; disulfide 2-8)")
10.3

Ki lookup needed for CCCC[C@H](NC(C)=O)C(=O)N[C@H]1CSSC[C@@H](C(N)=O)NC(=O)[C@H](Cc2cccc3ccccc23)NC(=O)[C@H](CCCNC(=N)N)NC(=O)[C@@H](Cc2ccc3ccccc3c2)NC(=O)[C@H](Cc2c[nH]cn2)NC(=O)[C@@H](C)NC1=O (Ac-[Nle]C[dA]H[d2Nal]R[1Nal]C-NH2; disulfide 2-8) , thanks.
3.07

---

Let's look at some molecules and their measured pEC50.
# target_or_test_system: hMC5-R (Homo sapiens, UniProt P33032)
# Construct: expressed in transfected cells; host or cells: CHO-K1
# Sequence (P33032 whole entry): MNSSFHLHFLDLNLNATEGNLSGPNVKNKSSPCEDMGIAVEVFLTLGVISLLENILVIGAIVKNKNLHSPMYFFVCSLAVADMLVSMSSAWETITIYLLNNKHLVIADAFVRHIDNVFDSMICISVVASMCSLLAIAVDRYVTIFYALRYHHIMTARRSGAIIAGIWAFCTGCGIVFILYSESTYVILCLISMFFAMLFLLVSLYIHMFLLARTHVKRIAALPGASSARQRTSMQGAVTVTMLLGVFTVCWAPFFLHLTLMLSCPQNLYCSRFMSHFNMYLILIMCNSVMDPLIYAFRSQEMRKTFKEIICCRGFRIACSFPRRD
# protocol_summary: cyclic AMP bioassay (ECL) in CHO-K1 cells
# Type: cell-based
# condition_summary: Table 9C/9D; read-out: EC50 hMC5-R
Bridge positions count the residues as written; N and C are the ends. Square brackets hold non-standard residues; d marks the D form. Peptide text beside a SMILES is read from it. 1Nal = N[C@@H](Cc1cccc2ccccc12)C(=O)O; d2Nal = N[C@H](Cc1ccc2ccccc2c1)C(=O)O; Nle = CCCC[C@H](N)C(=O)O; Ahx = NCCCCCC(=O)O; GABA = NCCCC(=O)O
// field semantics: pEC50 = negative decimal log of concentration (mol/L)

These solved cases illustrate the format of a correct answer.
>>> obs_value("CCCC[C@H](NC(C)=O)C(=O)N[C@H]1CSSC[C@@H](C(N)=O)NC(=O)CCCCCNC(=O)[C@H](Cc2c[nH]c3ccccc23)NC(=O)[C@H](CCCNC(=N)N)NC(=O)[C@@H](Cc2ccc3ccccc3c2)NC(=O)[C@H](Cc2c[nH]cn2)NC1=O (Ac-[Nle]CH[d2Nal]RW[Ahx]C-NH2; disulfide 2-8 (inferred))")
9.90
>>> obs_value("CC(=O)N[C@@H](CCc1ccccc1)C(=O)N[C@H]1CC(=O)NCCCC[C@@H](C(N)=O)NC(=O)CCCNC(=O)[C@H](Cc2c[nH]c3ccccc23)NC(=O)[C@H](CCCNC(=N)N)NC(=O)[C@@H](Cc2ccc3ccccc3c2)NC(=O)[C@H](Cc2c[nH]cn2)NC1=O")
9.51
>>> obs_value("CCCC[C@H](NC(C)=O)C(=O)N[C@H]1CSSC[C@@H](C(N)=O)NC(=O)CCCNC(=O)[C@H](Cc2c[nH]c3ccccc23)NC(=O)[C@H](CCCNC(=N)N)NC(=O)[C@@H](Cc2ccc3ccccc3c2)NC(=O)[C@H](Cc2c[nH]cn2)NC1=O (Ac-[Nle]CH[d2Nal]RW[GABA]C-NH2; disulfide 2-8)")
9.82
>>> obs_value("CC(=O)N[C@@H](CC1CCCCC1)C(=O)N[C@H]1CC(=O)NCCCC[C@@H](C(N)=O)NC(=O)CCCNC(=O)[C@H](Cc2c[nH]c3ccccc23)NC(=O)[C@H](CCCNC(=N)N)NC(=O)[C@@H](Cc2ccc3ccccc3c2)NC(=O)[C@H](Cc2c[nH]cn2)NC1=O")
9.13

Okay, next one:
Query: pEC50; subject: CCCC[C@H](NC(C)=O)C(=O)N[C@H]1CSSC[C@@H](C(N)=O)NC(=O)[C@H](Cc2cccc3ccccc23)NC(=O)[C@H](CCCNC(=N)N)NC(=O)[C@@H](Cc2ccc3ccccc3c2)NC(=O)[C@H](Cc2c[nH]cn2)NC(=O)[C@@H](C)NC1=O (Ac-[Nle]C[dA]H[d2Nal]R[1Nal]C-NH2; disulfide 2-8)
5.55

---

# target_or_test_system: hMC4-R (Homo sapiens, UniProt P32245)
# Construct: expressed in transfected cells; host or cells: CHO-K1
# protocol_summary: cyclic AMP bioassay (ECL) in CHO-K1 cells
# Assay type: cell-based
# condition_summary: Table 11; read-out: EC50 hMC4
test_readout: pEC50
To interpret pEC50, take it as minus log10 of a concentration measured in moles per litre.

>>> obs_value("C[C@@H]1C(=O)N[C@@H](Cc2cnc[nH]2)C(=O)N[C@H](Cc2ccccc2)C(=O)N[C@@H](CCCNC(=N)N)C(=O)N[C@@H](Cc2c[nH]c3ccccc23)C(=O)N[C@H](C(N)=O)CNC(=O)C[C@@H]2NC(=O)N1C2=O")
8.67

Return reported pEC50; argument: `N=C(N)NCCC[C@@H]1NC(=O)[C@@H](Cc2ccccc2)NC(=O)[C@H](Cc2cnc[nH]2)NC(=O)[C@H](CCC(=O)O)NC(=O)[C@@H](NC(=O)[C@H](CCCNC(=N)N)N2C(=O)CNC2=O)CSSC[C@@H](C(N)=O)NC(=O)[C@H](Cc2c[nH]c3ccccc23)NC1=O`
10.16

Name the reported pEC50 value associated with the molecule `N=C(N)NCCC[C@@H]1NC(=O)[C@@H](Cc2ccccc2)NC(=O)[C@H](Cc2c[nH]cn2)NC(=O)[C@H](CCC(=O)O)NC(=O)[C@@H](NC(=O)CN2C(=O)N[C@@H](CCCNC(=N)N)C2=O)CSSC[C@@H](C(N)=O)NC(=O)[C@H](Cc2c[nH]c3ccccc23)NC1=O`
10.01

Could you tell me which pEC50 is on file for `CCCC[C@@H]1NC(=O)N(CC(=O)N[C@H]2CSSC[C@@H](C(N)=O)NC(=O)[C@H](Cc3c[nH]c4ccccc34)NC(=O)[C@H](CCCNC(=N)N)NC(=O)[C@@H](Cc3ccccc3)NC(=O)[C@H](Cc3cnc[nH]3)NC(=O)[C@H](CCC(=O)O)NC2=O)C1=O` ?
9.75

---

# target_or_test_system: hMC1-R (Homo sapiens)
# Construct: expressed in transfected cells; host or cells: CHO-K1
# Sequence (Q01726 whole entry): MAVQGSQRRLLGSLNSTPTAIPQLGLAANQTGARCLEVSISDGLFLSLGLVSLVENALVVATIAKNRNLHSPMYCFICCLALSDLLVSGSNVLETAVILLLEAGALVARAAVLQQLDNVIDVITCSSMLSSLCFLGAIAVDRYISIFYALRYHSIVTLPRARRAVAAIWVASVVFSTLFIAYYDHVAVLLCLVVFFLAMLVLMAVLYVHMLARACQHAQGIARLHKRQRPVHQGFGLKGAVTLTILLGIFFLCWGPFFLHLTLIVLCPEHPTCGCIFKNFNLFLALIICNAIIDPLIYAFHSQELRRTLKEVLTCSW
# protocol_summary: Radioligand binding assay, [125I]-NDP-α-MSH competition, CHO-K1 membranes
# condition_summary: Table 5; read-out: Ki hMC1-R
Bridge positions count the residues as written; N and C are the ends. Square brackets hold non-standard residues; d marks the D form. Peptide text beside a SMILES is read from it. Bip = N[C@@H](Cc1ccc(-c2ccccc2)cc1)C(=O)O; 2Nal = N[C@@H](Cc1ccc2ccccc2c1)C(=O)O; d2Nal = N[C@H](Cc1ccc2ccccc2c1)C(=O)O; Bta = N[C@@H](Cc1csc2ccccc12)C(=O)O; Pen = CC(C)(S)[C@H](N)C(=O)O; Nle = CCCC[C@H](N)C(=O)O; GABA = NCCCC(=O)O; βAla = NCCC(=O)O
test_readout: pKi
A value of pKi is the negative decimal logarithm of a concentration given in moles per litre.

The cases that follow already have their pKi on record.
>>> obs_value("CCCC[C@H](NC(C)=O)C(=O)N[C@H]1CSSC[C@@H](C(N)=O)NC(=O)CCCNC(=O)[C@H](Cc2c[nH]c3ccccc23)NC(=O)[C@H](CCCNC(=N)N)NC(=O)[C@@H](Cc2ccccc2)NC(=O)[C@H](Cc2cccnc2)NC1=O")
7.68
>>> obs_value("CC(=O)N[C@@H](CCCNC(=N)N)C(=O)N[C@H]1CSSC(C)(C)[C@@H](C(N)=O)NC(=O)CCCNC(=O)[C@H](Cc2c[nH]c3ccccc23)NC(=O)[C@H](CCCNC(=N)N)NC(=O)[C@@H](Cc2ccccc2)NC(=O)[C@H](Cc2c[nH]cn2)NC1=O (Ac-RCH[dF]RW[GABA][Pen]-NH2; disulfide 2-8 (inferred))")
8.74

Returns the measured pKi for the input molecule. Input: CCCC[C@H](NC(C)=O)C(=O)N[C@H]1CSSC[C@@H](C(N)=O)NC(=O)[C@H](Cc2csc3ccccc23)NC(=O)[C@H](CCCNC(=N)N)NC(=O)[C@@H](Cc2ccc3ccccc3c2)NC(=O)[C@H](Cc2c[nH]cn2)NC(=O)[C@@H](C)NC1=O (Ac-[Nle]C[dA]H[d2Nal]R[Bta]C-NH2; disulfide 2-8)
7.65

Could you share which pKi value was measured for CCCC[C@H](NC(C)=O)C(=O)N[C@H]1CSSC[C@@H](C(N)=O)NC(=O)[C@H](Cc2ccc3ccccc3c2)NC(=O)[C@H](CCCNC(=N)N)NC(=O)[C@@H](Cc2ccc3ccccc3c2)NC(=O)[C@H](Cc2c[nH]cn2)NC(=O)[C@@H](C)NC1=O (Ac-[Nle]C[dA]H[d2Nal]R[2Nal]C-NH2; disulfide 2-8) ?
7.49

Look at this molecule and give its reported pKi. C[C@@H](O)[C@H](NC(=O)[C@H]1CSSC[C@H](NC(=O)[C@H](N)Cc2ccccc2)C(=O)N[C@@H](Cc2c[nH]cn2)C(=O)N[C@H](Cc2ccccc2)C(=O)N[C@@H](CCCNC(=N)N)C(=O)N[C@@H](Cc2ccc(-c3ccccc3)cc2)C(=O)NCCC(=O)N1)C(N)=O (H-[dF]CH[dF]R[Bip][βAla][dC]T-NH2; disulfide 2-8)
8.24

// pKi lookup, key: CC(=O)N[C@H](C(=O)N[C@H]1CSSC[C@@H](C(N)=O)NC(=O)CCCNC(=O)[C@H](Cc2c[nH]c3ccccc23)NC(=O)[C@H](CCCNC(=N)N)NC(=O)[C@@H](Cc2ccccc2)NC(=O)[C@H](Cc2c[nH]cn2)NC1=O)C(C)C (Ac-VCH[dF]RW[GABA]C-NH2; disulfide 2-8 (inferred))
9.59

// query pKi value for entry CCCC[C@H](NC(C)=O)C(=O)N[C@H]1CSSC[C@@H](C(N)=O)NC(=O)CCCNC(=O)[C@H](Cc2c[nH]c3ccccc23)NC(=O)[C@H](CCCNC(=N)N)NC(=O)[C@@H](Cc2ccc3ccccc3c2)NC(=O)[C@H](Cc2c[nH]cn2)NC1=O (Ac-[Nle]CH[d2Nal]RW[GABA]C-NH2; disulfide 2-8)
9.41

Taken from patent US20120135923A1.
